Taken from ChEMBL document CHEMBL3988442.

System: Trypanosoma brucei
Assay: Trypanosoma brucei 72 hour study
Type: functional, organism-based
Set-up: scale not given: in the data most compounds retested in dose-response had high values
Settings: 30.3 µM; […]
Hit rate of the full screen: of about 66,000 compounds, about 960 (1.5%) showed an effect of 50% or more. This is one part of a sample in which strong results are shown more often than they occur.
Percent Effect of -10% or higher: TRUE. Under -10%: FALSE.

Tell me whether Percent Effect is at least -10% here: `Cc1noc(C)c1CN1CCc2ncnc(-c3ccccc3)c2CC1.O=C(O)C(F)(F)F`
FALSE

====

Tested on: Trypanosoma brucei
Assay: Trypanosoma brucei 72 hour study
Type: functional, organism-based
Design: scale not given: in the data most compounds retested in dose-response had high values
Conditions: 30.3 µM; […]
Hit rate of the full screen: of about 66,000 compounds, about 960 (1.5%) showed an effect of 50% or more. For the sample, strong results were picked, then their nearest neighbours and some compounds at random.
READOUT_LABEL: Percent Effect (%)
Numbers only, in %.

# COMPOUND, UNIT_DESCRIPTOR, Percent Effect
rows = [
    ("Cc1cccc(N2CCc3ncc(CNc4ccccn4)n3CC2)n1.O=C(O)C(F)(F)F.O=C(O)C(F)(F)F", "%", -45.99),
    ("CCc1nc(CNCC2CCCN2c2cccnn2)cs1 (stereo not given)", "%", 4.558),
    ("Cc1ccccc1-c1cc(NC(=O)NC2CC2)n(CCO)n1", "%", 80.61),
    ("CN1CCN(C(=O)c2cccn2C)Cc2cccnc21", "%", -5.91),
    ("CCOC(=O)C1CC2(CCCCC2)N2CCC(=O)N12 (stereo not given)", "%", -30.31),
]

For each of the items listed, what is its Percent Effect?
1. CC(C)N1CCC(N2CCC(C(=O)N(C)C)CC2)CC1.O=C(O)C(F)(F)F.O=C(O)C(F)(F)F
2. Cc1cnc(N2CCCC3(COCCN(c4nccs4)C3)C2)nc1 (stereo not given)
3. O=C1CC[C@]2(CC[C@@H](NC(=O)NCc3ccccc3)CC2)N1
4. CCc1nc(CN2CCOC(CNc3cccnn3)C2)cs1 (stereo not given)
5. CO[C@H]1CN(C(=O)c2cccnc2)[C@@H]2CCCO[C@H]12.O=C(O)C(F)(F)F

-22.06
-22.75
-21.31
-0.3167
-49.74

====

Tested on: Trypanosoma brucei
Assay: Trypanosoma brucei 72 hour study
Type: functional, organism-based
Parameters: scale not given: in the data most compounds retested in dose-response had high values
Settings: 10 mM as filed; unlikely as a test dose
Out of some 66,000 compounds screened, about 960 (1.5%) showed an effect of 50% or more. This is one part of a sample in which strong results are shown more often than they occur.
Note to self: use rule met only for Percent Effect readings below -20%; a reading exactly at -20% still gets rule not met.

Solved entries (count: 2):
# MOLECULE, LABEL_VALUE
rows = [
    ("CCC1CCCCN1Cc1ncc(C(C)(C)C)o1 (centres undefined)", "rule met"),
    ("CC1CCCN(CCNC(=O)c2ccn(-c3cccc(F)c3)n2)C1 (centres undefined)", "rule not met"),
]

Determine if CC(=O)N1N=C(c2ccco2)OC1C(=O)N(C)CCc1ccccc1 (centres undefined) shows Percent Effect strictly lower than -20%.
rule met

Input COc1ccc(CNCC2CCN(c3ccccc3OC)C2)cc1O (centres undefined)
rule met

Likewise for Cc1cnn(CC2CCCCN2Cc2nc(C)c3ccccc3n2)c1 (centres undefined) ?
rule met
